Tested on: S. aureus (AD3)
Procedure Summary: MIC and MBC, broth dilution, S. aureus AD3
Assay type: cell-based
Applied Conditions: Staphylococcus aureus; S. aureus AD3 (clinical strain)
Endpoint Label: MBC (mg/L)
A number alone suffices; assume mg/L.

* C=C[C@]1(C)C[C@@H](OC(=O)CN2CCSCC2)[C@]2(C)[C@H](C)CC[C@]3(CCC(=O)[C@H]32)[C@@H](C)[C@@H]1O | 4
* C=C[C@]1(C)C[C@@H](OC(=O)CNc2ccc(F)cc2)[C@]2(C)[C@H](C)CC[C@]3(CCC(=O)[C@H]32)[C@@H](C)[C@@H]1O | 0.5
* C=C[C@]1(C)C[C@@H](OC(=O)CNc2ccc(Br)cc2)[C@]2(C)[C@H](C)CC[C@]3(CCC(=O)[C@H]32)[C@@H](C)[C@@H]1O | 1
* C=C[C@]1(C)C[C@@H](OC(=O)CNCCSC)[C@]2(C)[C@H](C)CC[C@]3(CCC(=O)[C@H]32)[C@@H](C)[C@@H]1O | 4
* C=C[C@]1(C)C[C@@H](OC(=O)CNc2ccc(Cl)cc2)[C@]2(C)[C@H](C)CC[C@]3(CCC(=O)[C@H]32)[C@@H](C)[C@@H]1O | 1
* C=C[C@]1(C)C[C@@H](OC(=O)CNCc2cccc(F)c2)[C@]2(C)[C@H](C)CC[C@]3(CCC(=O)[C@H]32)[C@@H](C)[C@@H]1O | 8
* C=C[C@]1(C)C[C@@H](OC(=O)CNC23CC4CC(CC(C4)C2)C3)[C@]2(C)[C@H](C)CC[C@]3(CCC(=O)[C@H]32)[C@@H](C)[C@@H]1O | 4

Qu. Enter MBC (test system S. aureus (AD3)) for "C=C[C@]1(C)C[C@@H](OC(=O)CNCCCc2ccccc2)[C@]2(C)[C@H](C)CC[C@]3(CCC(=O)[C@H]32)[C@@H](C)[C@@H]1O"
Ans. 4

Cited source for all entries: paper PMC8838415
